- System: Alopecurus myosuroides (ALOMY)
- experimental-details: Glasshouse assay for herbicidal activity (pre- and post-emergence), percentage phytotoxicity
- Assay type: in vivo
- condition-info: Alopecurus myosuroides, pre-emergence, 480 h, Rate 250 g/ha; pre-emergence; assessed visually 20 DAA; 100%=total damage, 0%=no damage; read-out: Pre-emergence herbicidal activity (percentage phytotoxicity) ALOMY PRE
Below: a set of entries, each annotated with reported pest or weed control at 250 g/ha.

molecule	readout-unit	pest or weed control at 250 g/ha
Cc1cc(-c2ncc(Cl)cc2F)cc(C)c1C1C(=O)CC(CC(=O)NCc2ccc(OC(F)(F)F)cc2)C1=O (stereo not shown)	%	90
C=CCCNC(=O)CC1CC(=O)C(c2c(C)cc(-c3ncc(Cl)cc3F)cc2C)C1=O (stereo not shown)	%	90
C#CCNC(=O)CC1CC(=O)C(c2c(C)cc(C#CC)cc2C)C1=O (stereo not shown)	%	100
C=CCCNC(=O)CC1CC(=O)C(c2c(C)cc(C#CC)cc2C)C1=O (stereo not shown)	%	100
CC#Cc1cc(C)c(C2C(=O)CC(CC(=O)NC(C)(C)C)C2=O)c(C)c1 (stereo not shown)	%	100
Cc1cc(C)c(C2C(=O)CC(CC(=O)N3CCCC3)C2=O)c(C)c1 (stereo not shown)	%	70
CC#Cc1cc(C)c(C2C(=O)CC(CC(=O)NCC(C)C)C2=O)c(C)c1 (stereo not shown)	%	100
Cc1cc(-c2ccc(F)cn2)cc(C)c1C1C(=O)CC(CC(=O)NC(C)(C)C)C1=O (stereo not shown)	%	100
Cc1cc(-c2ncc(F)cc2Cl)cc(C)c1C1C(=O)CC(CC(=O)NCc2cccs2)C1=O (stereo not shown)	%	70
Cc1cc(-c2ncc(Cl)cc2F)cc(C)c1C1C(=O)CC(CC(=O)NC2CC2)C1=O (stereo not shown)	%	100
Cc1cc(-c2ncc(F)cn2)cc(C)c1C1C(=O)CC(CC(=O)NCc2cccs2)C1=O (stereo not shown)	%	90
Cc1cc(-n2cc(Cl)cn2)cc(C)c1C1C(=O)CC(CC(=O)NCC(C)C)C1=O (stereo not shown)	%	90
Cc1cc(C)c(C2C(=O)CC(CC(=O)NCc3cc(C)nn3C)C2=O)c(C)c1 (stereo not shown)	%	40
